Reported IC50 values follow for various compounds
Biological target: H1047R PIK3CA enzyme (Homo sapiens, UniProt P42336, H1047R)
Sequence (P42336 whole entry H1047R): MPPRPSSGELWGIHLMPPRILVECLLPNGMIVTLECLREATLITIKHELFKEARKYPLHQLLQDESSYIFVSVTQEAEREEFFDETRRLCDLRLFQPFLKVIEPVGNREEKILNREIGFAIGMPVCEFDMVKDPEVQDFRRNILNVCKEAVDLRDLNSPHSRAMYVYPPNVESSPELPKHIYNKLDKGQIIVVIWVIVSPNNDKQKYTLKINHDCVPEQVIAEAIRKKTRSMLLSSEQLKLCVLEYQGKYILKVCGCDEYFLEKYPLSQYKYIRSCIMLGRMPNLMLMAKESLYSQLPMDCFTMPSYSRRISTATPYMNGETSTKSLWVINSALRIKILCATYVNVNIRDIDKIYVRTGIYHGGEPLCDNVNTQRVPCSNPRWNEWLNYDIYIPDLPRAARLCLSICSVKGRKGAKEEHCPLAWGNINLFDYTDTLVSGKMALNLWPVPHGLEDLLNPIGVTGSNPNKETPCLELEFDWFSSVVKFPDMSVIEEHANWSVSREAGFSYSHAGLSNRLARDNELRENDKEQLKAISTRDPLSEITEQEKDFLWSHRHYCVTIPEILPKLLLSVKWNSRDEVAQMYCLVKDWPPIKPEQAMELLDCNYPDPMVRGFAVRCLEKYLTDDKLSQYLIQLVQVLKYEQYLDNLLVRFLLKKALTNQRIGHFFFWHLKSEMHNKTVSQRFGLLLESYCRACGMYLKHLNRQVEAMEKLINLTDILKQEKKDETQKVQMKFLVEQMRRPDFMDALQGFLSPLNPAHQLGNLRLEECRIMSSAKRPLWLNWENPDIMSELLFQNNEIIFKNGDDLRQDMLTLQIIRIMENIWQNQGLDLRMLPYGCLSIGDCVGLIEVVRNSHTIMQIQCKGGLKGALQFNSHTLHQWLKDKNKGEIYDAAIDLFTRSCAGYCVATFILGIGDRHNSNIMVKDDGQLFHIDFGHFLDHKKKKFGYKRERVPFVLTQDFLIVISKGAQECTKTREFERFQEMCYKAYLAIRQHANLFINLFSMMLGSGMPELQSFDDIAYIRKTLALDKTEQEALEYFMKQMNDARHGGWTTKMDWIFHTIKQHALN
Sequence (P27986 whole entry partner): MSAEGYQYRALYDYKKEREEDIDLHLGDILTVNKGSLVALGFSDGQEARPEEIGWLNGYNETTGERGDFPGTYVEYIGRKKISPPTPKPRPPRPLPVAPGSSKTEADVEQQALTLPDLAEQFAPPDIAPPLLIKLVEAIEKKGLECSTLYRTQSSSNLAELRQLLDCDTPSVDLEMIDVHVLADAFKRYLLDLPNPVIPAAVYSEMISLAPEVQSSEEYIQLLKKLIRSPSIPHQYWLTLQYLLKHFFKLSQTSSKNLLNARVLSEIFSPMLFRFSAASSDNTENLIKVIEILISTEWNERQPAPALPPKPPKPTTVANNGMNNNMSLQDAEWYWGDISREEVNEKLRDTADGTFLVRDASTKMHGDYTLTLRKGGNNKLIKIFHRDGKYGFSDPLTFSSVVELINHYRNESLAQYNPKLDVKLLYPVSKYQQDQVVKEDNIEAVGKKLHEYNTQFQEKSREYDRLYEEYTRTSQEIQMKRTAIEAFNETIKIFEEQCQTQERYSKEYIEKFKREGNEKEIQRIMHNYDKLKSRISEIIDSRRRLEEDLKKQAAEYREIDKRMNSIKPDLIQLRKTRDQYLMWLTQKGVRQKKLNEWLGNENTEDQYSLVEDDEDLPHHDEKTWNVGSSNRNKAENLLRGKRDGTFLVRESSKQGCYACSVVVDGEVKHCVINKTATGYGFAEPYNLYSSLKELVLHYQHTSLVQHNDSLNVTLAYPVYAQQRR
Test: ADP-Glo Biochemical PIK3CA Kinase Assay
Method: Compounds to be assayed were plated in 16 doses of 1:2 serial dilutions (20 nL volume each well) on a 1536-well plate, and the plate warmed to room temperature. […] To the well was added 1 μL of 200 μM ATP and 20 μM of diC8-PIP2 in Substrate Assay Buffer (50 mM HEPES pH7.4, 50 mM NaCl, 5 mM DTT and 0.03% CHAPS) to start the reaction, and the plate was shaken for 10 seconds, then spun briefly at 1500 rpm, and then incubated for 60 minutes at room temperature. […]

These recorded examples may help you get a feel for the data.
# compound, target.of.assay, IC50
records = [
    ("O=C(Nc1cc(-c2ccc3ncnn3c2)cc2c1[C@H](c1cc(F)ccc1Cl)NC2=O)c1cccc(C(F)(F)F)c1 (stereo in doubt) [Compound I-1121]", "H1047R PIK3CA enzyme (Homo sapiens, UniProt P42336, H1047R)", "≤ 100 nM"),
    ("O=C(Nc1cc(OCc2cncnc2)cc2c1C(c1cc(F)ccc1Cl)NC2=O)c1cc(F)cc(C(F)(F)F)c1 (stereo not drawn) [Compound I-1735]", "H1047R PIK3CA enzyme (Homo sapiens, UniProt P42336, H1047R)", "≤ 100 nM"),
    ("Nc1cc(NC(=O)N2C[C@H](O)c3ccccc32)c2c(c1)C(=O)N[C@H]2c1cc(F)ccc1Cl (single isomer, unassigned) [Compound I-2132]", "H1047R PIK3CA enzyme (Homo sapiens, UniProt P42336, H1047R)", "≤ 100 nM"),
    ("O=C(Nc1cc(-c2cn[nH]c2)cc2c1[C@@H](c1cc(F)ccc1Cl)NC2=O)c1cc(F)cc(C(F)(F)F)c1 [Compound I-1079]", "H1047R PIK3CA enzyme (Homo sapiens, UniProt P42336, H1047R)", "≤ 100 nM"),
    ("NS(=O)(=O)c1cc(-c2ccc3ncnn3c2)cc2c1[C@@H](c1cc(F)ccc1Cl)NC2=O [Compound I-2100]", "H1047R PIK3CA enzyme (Homo sapiens, UniProt P42336, H1047R)", "10000 to 100000 nM"),
]

Moving on to the next compound.
Report IC50 for O=C1NC(c2cc(F)ccc2Cl)c2c(NC(=O)N3CCC4C(C3)C4C(F)(F)F)cc(Br)cc21 (stereo not drawn) [Compound I-1756] please. 1000 to 10000 nM
